- test: Tet-On RFP internal-standard readout, HSF1 screen, dose response, cell-based, NIH3T3 R4, HSE-GFP and Tet-On RFP, cherry-pick, set 3 (AID 493085);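 further: cells heat shocked 2 h at 42 °C with doxycycline to induce reporters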
- experimental-conditions: NIH3T3 R4 HSE-GFP/Tet-RFP reporter, fluorescence, 48 h; series mostly up to 19.5 µM
The campaign covered roughly 2,400 compounds. About 360 (15%) were called active. Not shown: some 5% with an inconclusive outcome. Only a sample is shown. Results with a measured potency or affinity are listed apart.
measurement-kind: outcome

Previously resolved entries follow.
> print(dat)
                              smiles.record    result
1  Cc1ccc(S(=O)(=O)CCC(=O)Nc2ccc(Br)cc2)cc1  inactive
2  O=C(O)c1ccc(N/N=C/c2ccc(OC(=O)c3ccccc3Cl)cc2)cc1  inactive
3  Cc1ccc(S(=O)(=O)N(C)c2ccccc2C(=O)NC2CCCC2)cc1  inactive
4  N#C/C(=C\Nc1ccc2cn[nH]c2c1)c1nc(-c2ccccc2)cs1  inactive
5  CN(C(=O)CCNC(=O)Cn1cnc2ccccc2c1=O)c1ccccc1F  inactive

Let us examine a further case.
Data request, read-out outcome, for CC(C)(C)c1ccc(/C=C(\C#N)C(=O)Nc2ccccn2)cc1
inactive
